# System: 922993-354-T-J3-PDC complex spheroids, viability
# ASSAY COMMENT: Anticancer human tumor 922993-354-T-J3-PDC patient-derived endometrial carcinoma cell line growth inhibition [GQUAD]
# REPORTED CONDITIONS: curve of first compound; second compound 1 µM
# Description: DNA G-quadruplex Stabilizer Agents in Combinations in Complex Spheroids A high-throughput screen of multi-cell type tumor spheroids was designed to identify active combinations of DNA G-quadruplex stabilizer agents and targeted small molecules. […] Compounds. […] If the clinical Cmax for an agent had not been determined, the highest concentration tested was 10 microM. […]

COMPOUND	IC50
CC(=O)O[C@H]1C(=O)[C@@]2(C)[C@H]([C@H](OC(=O)c3ccccc3)[C@]3(O)C[C@H](OC(=O)[C@H](O)[C@@H](NC(=O)c4ccccc4)c4ccccc4)C(C)=C1C3(C)C)[C@]1(OC(C)=O)CO[C@@H]1C[C@@H]2O + CN(C)c1ccc(Nc2c3ccc(NC(=O)CCN4CCCC4)cc3nc3cc(NC(=O)CCN4CCCC4)ccc23)cc1	> 10 µM
Nc1ccn(C2OC(CO)C(O)C2(F)F)c(=O)n1 (stereo not given) + Cc1cnc(CNC(=O)c2c(=O)c3ccc(N4CCCN(C)CC4)nc3n3c2sc2ccccc23)cn1	< 0.0316 µM
COc1cc(C2c3cc4c(cc3C(OC3OC5COC(C)OC5C(O)C3O)C3COC(=O)C23)OCO4)cc(OC)c1O (stereo not given) + Cc1[nH]c2ccc(F)cc2c1-c1nc2c3cccnc3c3ncccc3c2[nH]1	> 10 µM
CCc1c2c(nc3ccc(O)cc13)-c1cc3c(c(=O)n1C2)COC(=O)[C@]3(O)CC + Cc1cnc(CNC(=O)c2c(=O)c3ccc(N4CCCN(C)CC4)nc3n3c2sc2ccccc23)cn1	0.00512 µM
O=c1[nH]cc(F)c(=O)[nH]1 + Cc1[nH]c2ccc(F)cc2c1-c1nc2c3cccnc3c3ncccc3c2[nH]1	> 10 µM

====

# Tested on: 922993-354-T-J3-PDC complex spheroids, viability
# ASSAY COMMENT: Anticancer human tumor 922993-354-T-J3-PDC cell line growth inhibition [GQUAD];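 note: spheroids exposed to compounds for seven days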
# REPORTED CONDITIONS: curve of first compound; second compound 10 µM
# Excerpt: DNA G-quadruplex Stabilizer Agents in Combinations in Complex Spheroids A high-throughput screen of multi-cell type tumor spheroids was designed to identify active combinations of DNA G-quadruplex stabilizer agents and targeted small molecules. […] Compounds. […] If the clinical Cmax for an agent had not been determined, the highest concentration tested was 10 microM. […]
pIC50: −log10 of the molar value.

COMPOUND	BOUND SIGN	pIC50
CCc1c2c(nc3ccc(O)cc13)-c1cc3c(c(=O)n1C2)COC(=O)[C@]3(O)CC + Cc1[nH]c2ccc(F)cc2c1-c1nc2c3cccnc3c3ncccc3c2[nH]1	=	8.17
O=c1[nH]cc(F)c(=O)[nH]1 + CN(C)c1ccc(Nc2c3ccc(NC(=O)CCN4CCCC4)cc3nc3cc(NC(=O)CCN4CCCC4)ccc23)cc1	=	5.27
C#Cc1c(F)ccc2cc(O)cc(-c3ncc4c(N5CC6CCC(C5)N6)nc(OCC56CCCN5CC(F)C6)nc4c3F)c12 (stereo unspecified) + Cc1cnc(CNC(=O)c2c(=O)c3ccc(N4CCCN(C)CC4)nc3n3c2sc2ccccc23)cn1	>	7.50
CC(C)(O)C1CCC(Nc2ccc3ncc(-c4cccc(C(F)(F)F)c4)n3n2)CC1 (stereo unspecified) + Cc1[nH]c2ccc(F)cc2c1-c1nc2c3cccnc3c3ncccc3c2[nH]1	<	5.00
CC1COCCN1c1cc(-c2ccnn2C)c2ccnc(-c3ccn[nH]3)c2n1 (stereo unspecified) + Cc1[nH]c2ccc(F)cc2c1-c1nc2c3cccnc3c3ncccc3c2[nH]1	=	6.67
CC1COCCN1c1cc(-c2ccnn2C)c2ccnc(-c3ccn[nH]3)c2n1 (stereo unspecified) + CN(C)c1ccc(Nc2c3ccc(NC(=O)CCN4CCCC4)cc3nc3cc(NC(=O)CCN4CCCC4)ccc23)cc1	=	6.40
